Each recorded value in this set is attributed to the supplement of paper PMC8975748.

# System: Saccharomyces cerevisiae BY4741 SeMeCo community
# experimentalProtocol: z-score of subpopulation abundance vs DMSO median, subpopulation auxotrophic for HL; higher = larger share of this subpopulation than in DMSO controls
# setupConditions: 10 µM; 24 h; SM minimal medium; subpopulation (auxotrophy): HL
Counter-ions that a name gives are not always drawn.
# z-score of subpopulation abundance binned as bottom (below -0.3), middle (-0.3 to below 0.7), top (0.7 or more)

Please review the following examples before continuing.
>>> assignedclass("COC(=O)C1=C(C)NC(C)=C(C(=O)OCCN(C)Cc2ccccc2)C1c1cccc([N+](=O)[O-])c1 (centres undefined) [Nicardipine HCl]")
"middle"
>>> assignedclass("Cc1ccc(C(=O)C(C)CN2CCCCC2)cc1 (centres undefined) [Tolperisone HCl]")
"bottom"
>>> assignedclass("CCOc1ccc2nc3cc(N)ccc3c(N)c2c1 [Ethacridine lactate monohydrate]")
"top"
>>> assignedclass("COCCCOc1ccnc(C[S+]([O-])c2nc3ccccc3[nH]2)c1C (centres undefined) [Rebeprazole sodium]")
"bottom"
>>> assignedclass("CC(C(=O)O)c1ccc2c(c1)[nH]c1ccc(Cl)cc12 (centres undefined)")
"top"
>>> assignedclass("CC1(C)S[C@@H]2[C@H](NC(=O)C(C(=O)O)c3ccccc3)C(=O)N2[C@H]1C(=O)O (some centres undefined) [Carbenicillin disodium]")
"bottom"
>>> assignedclass("CCCCCOc1ccc(-c2cc(-c3ccc(C(=O)N[C@H]4C[C@@H](O)[C@@H](O)NC(=O)[C@@H]5[C@@H](O)[C@@H](C)CN5C(=O)[C@H]([C@H](O)CC(N)=O)NC(=O)[C@H]([C@H](O)[C@@H](O)c5ccc(O)c(OS(=O)(=O)O)c5)NC(=O)[C@@H]5C[C@@H](O)CN5C(=O)[C@H]([C@@H](C)O)NC4=O)cc3)no2)cc1 [Micafungin Sodium]")
"top"
>>> assignedclass("Cc1cc(C)nc(NS(=O)(=O)c2ccc(N)cc2)n1 [Sulfamethazine Sodium Salt]")
"middle"
>>> assignedclass("COc1ccc(CC2c3cc(OC)c(OC)cc3CC[N+]2(C)CCC(=O)OCCCCCOC(=O)CC[N+]2(C)CCc3cc(OC)c(OC)cc3C2Cc2ccc(OC)c(OC)c2)cc1OC (centres undefined) [Atracurium Besylate]")
"top"
>>> assignedclass("CN1C2CCCC1CC(NC(=O)c1nn(C)c3ccccc13)C2 (centres undefined) [Granisetron HCl]")
"middle"

Ask: The entry to classify is CO/N=C(\C(=O)N[C@@H]1C(=O)N2C(C(=O)O)=C(CSc3nc(=O)c(O)nn3C)CS[C@H]12)c1csc(N)n1 [Ceftriaxone Sodium Trihydrate] ; which class holds it?
Result: top

Ask: N[C@@H](CCC(=O)O)C(=O)O [(S)-Glutamic acid] , same question.
Result: middle

Ask: Another compound: Clc1ccc(COC(Cn2ccnc2)c2ccc(Cl)cc2Cl)cc1 (centres undefined)
Result: top

Ask: Please answer likewise for CCCC1CC(C(=O)NC(C(C)Cl)C2OC(SC)C(O)C(O)C2O)N(C)C1 (centres undefined) [Clindamycin alcoholate]
Result: top

Ask: Then what about the compound C[n+]1ccccc1/C=N/O [Pralidoxime chloride] ?
Result: bottom

Ask: C=C[C@]1(C)C[C@@H](OC(=O)CS[C@@H]2C[C@H]3CC[C@@H](C2)N3C)[C@]2(C)[C@H](C)CC[C@]3(CCC(=O)[C@H]32)[C@@H](C)[C@@H]1O , same question.
Result: bottom

Ask: Queued: CCN1CCC[C@H]1CNC(=O)c1cc(S(N)(=O)=O)ccc1OC [Levosulpiride]
Result: middle
